Below, each entry is listed alongside its reported IC50.
- System: SMN2 Splicing D7 (SMN Δ7 transcript)
- assay procedure: SMN Quantitative Splicing Assay (qPCR)
- Type: cell-based, human
- assay setup: Homo sapiens, Fibroblast, 24 h, SMA patient fibroblasts (GM03813), 2.5 µM to 0.6 nM
- Description: Spinal muscular atrophy (SMA) patient fibroblasts (GM03813, Coriell) were plated in 96-well plates at 50,000 cells/well. […] Treated cells were lysed and cDNA synthesized using the Fast Advanced Cells-to-Ct kit (Thermofisher A35378) according to the manufacturer’s instructions. 2 µL of each cDNA were used in qPCR reactions. […] Reactions were run in a Quant Studio 6 qPCR instrument with default settings.

Use these answered entries as a reference point.
>>> observed("Cc1cc2cc(-c3ncc(N(C)[C@@H]4CC5CCC(N5)[C@@H]4F)nn3)c(O)cc2cn1 (stereo partly shown)")
"51 to 100 nM"
>>> observed("CN(c1cnc(-c2cc3occc(=O)c3cc2O)nn1)[C@H]1C[C@@H]2COCC(N2)[C@H]1F")
"101 to 500 nM"
>>> observed("Cc1nc2cc(O)c(-c3ncc(N(C)[C@H]4CC5CC[C@@H](N5)[C@H]4F)nn3)cc2nc1C")
"0.01 to 15 nM"

Now look at this one.
Using the record for "CN(c1cnc(-c2cc3occc(=O)c3cc2O)nn1)[C@H]1C[C@@H]2CCCC(N2)[C@H]1F" , state its measured IC50. 16 to 50 nM
